Biological target: bovine thrombin (Bos taurus)
Assay: Antithrombin activity: inhibition of fibrin formation from fibrinogen
Type: biochemical
Settings: read-out: Thrombin Fibrinogen (I50); Table 2; concentration at which coagulation time of bovine fibrinogen is extended twice, pH 7.4, 37° C.
RECORDED_ENDPOINT: IC50

The cases that follow already have their IC50 on record.
{"MOLECULE": "CCOC(=O)C1CCCC(NC(=O)[C@H](Cc2ccc(OCc3cccc(Cl)c3)cc2)NC(=O)[C@H]2CC[C@H](CN)CC2)C1 (stereo partly shown)", "MEASURED_ON": "bovine thrombin (Bos taurus)", "REPORTED_RESULT": "> 50 µM"}
{"MOLECULE": "CCOC(=O)C1CCCC(NC(=O)[C@H](Cc2ccc(OCc3cccc(Cl)c3)cc2)NC(=O)c2ccc(CN)cc2)C1 (stereo partly shown)", "MEASURED_ON": "bovine thrombin (Bos taurus)", "REPORTED_RESULT": "> 25 µM"}
{"MOLECULE": "CC1CCCC(NC(=O)[C@H](Cc2ccc(OCc3ccccc3)cc2)NC(=O)c2ccc(CN)cc2)C1C (stereo partly shown)", "MEASURED_ON": "bovine thrombin (Bos taurus)", "REPORTED_RESULT": "> 25 µM"}

Now consider a different molecule.
The molecule CCOC(=O)C1CCCC(NC(=O)[C@H](Cc2ccc(OCc3ccc(F)cc3)cc2)NC(=O)c2ccc(CN)cc2)C1 (stereo partly shown) on bovine thrombin (Bos taurus): IC50 was > 50 µM
